Settings: 343.15 K; 101.33 kPa; Liquid; impedancemetry (AC impedance bridge)

{"COMPOUND": "CCn1cc[n+](C)c1.COS(=O)(=O)[O-] [1-ethyl-3-methylimidazolium methylsulfate]", "DISPLAY UNIT": "S/m", "electrical conductivity": 2.34}
{"COMPOUND": "CCCCn1cc[n+](C)c1.O=S(=O)([O-])C(F)(F)F [1-butyl-3-methylimidazolium trifluoromethanesulfonate]", "DISPLAY UNIT": "S/m", "electrical conductivity": 1.29}
{"COMPOUND": "CCn1cc[n+](C)c1.O=S(=O)([O-])C(F)(F)F [1-ethyl-3-methylimidazolium trifluoromethanesulfonate]", "DISPLAY UNIT": "S/m", "electrical conductivity": 2.6}
{"COMPOUND": "CCCCn1cc[n+](C)c1.COS(=O)(=O)[O-] [1-butyl-3-methylimidazolium methyl sulfate]", "DISPLAY UNIT": "S/m", "electrical conductivity": 0.757}

* * *

Settings: 323.15 K; 101.33 kPa; Liquid; Concentric cylinders viscometry

{"COMPOUND": "CCn1cc[n+](C)c1.COS(=O)(=O)[O-] [1-ethyl-3-methylimidazolium methylsulfate]", "viscosity (mPa·s)": 28.8}
{"COMPOUND": "CCn1cc[n+](C)c1.O=S(=O)([O-])C(F)(F)F [1-ethyl-3-methylimidazolium trifluoromethanesulfonate]", "viscosity (mPa·s)": 20.2}
{"COMPOUND": "CCCCn1cc[n+](C)c1.COS(=O)(=O)[O-] [1-butyl-3-methylimidazolium methyl sulfate]", "viscosity (mPa·s)": 64.3}
{"COMPOUND": "CCCCn1cc[n+](C)c1.O=S(=O)([O-])C(F)(F)F [1-butyl-3-methylimidazolium trifluoromethanesulfonate]", "viscosity (mPa·s)": 31.6}

* * *

Conditions: 298.15 K; 101.33 kPa; Liquid; impedancemetry (AC impedance bridge)

{"COMPOUND": "CCCCn1cc[n+](C)c1.COS(=O)(=O)[O-] [1-butyl-3-methylimidazolium methyl sulfate]", "DISPLAY UNIT": "S/m", "electrical conductivity": 0.126}
{"COMPOUND": "CCCCn1cc[n+](C)c1.O=S(=O)([O-])C(F)(F)F [1-butyl-3-methylimidazolium trifluoromethanesulfonate]", "DISPLAY UNIT": "S/m", "electrical conductivity": 0.301}
{"COMPOUND": "CCn1cc[n+](C)c1.COS(=O)(=O)[O-] [1-ethyl-3-methylimidazolium methylsulfate]", "DISPLAY UNIT": "S/m", "electrical conductivity": 0.602}
{"COMPOUND": "CCn1cc[n+](C)c1.O=S(=O)([O-])C(F)(F)F [1-ethyl-3-methylimidazolium trifluoromethanesulfonate]", "DISPLAY UNIT": "S/m", "electrical conductivity": 0.913}

* * *

Known electrical conductivity of a selection of compounds
Settings: 333.15 K; 101.33 kPa; Liquid; impedancemetry (AC impedance bridge)
PROPERTY NAME: electrical conductivity (S/m)

{"COMPOUND": "CCCCn1cc[n+](C)c1.COS(=O)(=O)[O-] [1-butyl-3-methylimidazolium methyl sulfate]", "PROPERTY NAME": "electrical conductivity", "READOUT VALUE": 0.551}
{"COMPOUND": "CCn1cc[n+](C)c1.COS(=O)(=O)[O-] [1-ethyl-3-methylimidazolium methylsulfate]", "PROPERTY NAME": "electrical conductivity", "READOUT VALUE": 1.84}
{"COMPOUND": "CCn1cc[n+](C)c1.O=S(=O)([O-])C(F)(F)F [1-ethyl-3-methylimidazolium trifluoromethanesulfonate]", "PROPERTY NAME": "electrical conductivity", "READOUT VALUE": 2.19}
{"COMPOUND": "CCCCn1cc[n+](C)c1.O=S(=O)([O-])C(F)(F)F [1-butyl-3-methylimidazolium trifluoromethanesulfonate]", "PROPERTY NAME": "electrical conductivity", "READOUT VALUE": 1.01}
